Listing of entries alongside the reported sensor-assay potency score (higher = more potent).
molecular target: PKIG; experiment: pooled miR-30 sensor sort-seq; sequence = guide strand; settings: shRNA; further: reference of the scale not given here
Reply: number alone, nothing else.

Problem: Look up sensor-assay potency score (higher = more potent) for this sequence: TAACATCTTGTGGTTACAGTGT
Result: -0.118

Problem: Entry TTGCCAGCTTCCTTGTCTGGGG : reported sensor-assay potency score (higher = more potent) = ?
Result: -0.658

Problem: Record request: sensor-assay potency score (higher = more potent) value, item TGGGGCGCTTCCCTCCACCTGT
Result: -1.57

Problem: sensor-assay potency score (higher = more potent) for TCAGGGACCGCATTCCGACGGC ?
Result: -0.897

Problem: Need sensor-assay potency score (higher = more potent), item TCGAGTGCCAGCTCGCCCATGT
Result: -1.07

Source: the OligoGym collection
